Biological target: Fyn (UniProt P06241)
Sequence (P06241 whole entry, looked up): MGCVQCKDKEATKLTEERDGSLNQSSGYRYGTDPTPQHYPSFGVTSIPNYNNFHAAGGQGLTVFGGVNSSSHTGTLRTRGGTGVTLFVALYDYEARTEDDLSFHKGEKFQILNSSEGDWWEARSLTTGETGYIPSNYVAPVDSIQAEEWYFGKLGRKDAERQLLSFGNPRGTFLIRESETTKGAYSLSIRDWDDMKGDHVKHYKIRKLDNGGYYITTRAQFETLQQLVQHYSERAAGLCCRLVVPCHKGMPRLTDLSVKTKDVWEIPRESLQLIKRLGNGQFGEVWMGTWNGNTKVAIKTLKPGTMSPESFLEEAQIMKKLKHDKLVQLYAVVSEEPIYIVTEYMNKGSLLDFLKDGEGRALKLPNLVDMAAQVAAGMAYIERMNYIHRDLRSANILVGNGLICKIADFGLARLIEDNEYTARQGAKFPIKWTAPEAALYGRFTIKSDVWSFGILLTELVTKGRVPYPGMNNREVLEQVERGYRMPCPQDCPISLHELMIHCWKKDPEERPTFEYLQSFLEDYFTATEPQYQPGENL
Assay: phosphorylation enrichment, bacterial display (enrichment ratio); higher = better substrate or ligand; peptides without Tyr show the background;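 further: 11-residue human phosphosite peptides and single-mutation variants displayed on the E. coli surface, counted by deep sequencing, each peptide's frequency after selection divided by its frequency in the unselected input library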;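 further: frequency after pTyr selection over input frequency; kinase dosed for 20-30% of maximal phosphorylation in three min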
Reported phosphorylation enrichment values follow for various sequences
Form field (numeric): enter value without unit.

Measured phosphorylation enrichment, ALTDNYMYLVI [HAGH_Y61] : 0.848

====

Reported phosphorylation enrichment values follow for various sequences
Target: Hck (UniProt P08631)
Sequence (P08631 whole entry, looked up): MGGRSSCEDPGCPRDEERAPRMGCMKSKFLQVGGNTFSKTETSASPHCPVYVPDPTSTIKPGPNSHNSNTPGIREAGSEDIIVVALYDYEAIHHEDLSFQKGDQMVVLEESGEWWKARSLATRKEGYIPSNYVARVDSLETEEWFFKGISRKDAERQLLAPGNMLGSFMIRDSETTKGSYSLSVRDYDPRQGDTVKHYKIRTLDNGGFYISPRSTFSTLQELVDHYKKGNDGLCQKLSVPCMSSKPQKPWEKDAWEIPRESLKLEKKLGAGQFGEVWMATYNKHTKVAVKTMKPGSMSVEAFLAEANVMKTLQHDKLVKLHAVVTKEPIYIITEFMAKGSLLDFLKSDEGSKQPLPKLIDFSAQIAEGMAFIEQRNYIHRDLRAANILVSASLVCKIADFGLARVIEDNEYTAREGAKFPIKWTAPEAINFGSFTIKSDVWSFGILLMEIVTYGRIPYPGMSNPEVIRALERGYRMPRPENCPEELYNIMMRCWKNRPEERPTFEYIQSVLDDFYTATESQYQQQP
Experiment: phosphorylation enrichment, bacterial display (enrichment ratio); higher = better substrate or ligand; peptides without Tyr show the background
Form field (numeric): enter value without unit.

Some entries whose results are on file:
> print(dat)
                        sequence.text           reported.property  reported
1         GRVFVYRLSEQ [ITGAE_Y551_YF]  phosphorylation enrichment     0.492
2         PPKFFDTRKLL [CYBB_Y41_Y41D]  phosphorylation enrichment      0.51
3  KREPQYSSHSS [SIPA1L3_Y1265_G1261R]  phosphorylation enrichment     0.362
4        PVFEVYPLLNC [GATA1_Y78_Q76E]  phosphorylation enrichment     0.597
5              NKVKFYIPDMN [NCR1_Y84]  phosphorylation enrichment     0.432

Measured phosphorylation enrichment, LPEHPYHSRPR [NDUFA8_Y142_N140H] : 1.9

Measured phosphorylation enrichment, FENGEYIVRQG [PRKG1_Y247_I249V_YF] : 0.551

Measured phosphorylation enrichment, VHNLDYFKKTT [FGFR3_Y647_YF] : 0.46

Measured phosphorylation enrichment, ARLEYYENEKK [IRS1_Y47] : 0.482

Measured phosphorylation enrichment, IEELTYIIKQD [STX5_Y137] : 0.528

Measured phosphorylation enrichment, EDASEYFENFI [PARP4_Y214_F215Y_YF] : 0.624

Measured phosphorylation enrichment, EQKRYYNAMKK [SCN5A_Y1495_K1493R] : 0.312

Measured phosphorylation enrichment, FHLGKYLQEVL [KLB_Y910_Y906H_YF] : 0.591

Measured phosphorylation enrichment, VTGWGYRKLRE [F11_Y521_D526E] : 0.407

Measured phosphorylation enrichment, FADIAYIFRHG [PAH_Y166_N167I_YF] : 0.449

Measured phosphorylation enrichment, MDNQEYKDAFT [BRDT_Y331_K336T_YF] : 0.488
